tested on: CAL-120; assay: drug sensitivity score (DSS), CellTiter-Glo (DSS (AUC-based score)); higher = stronger drug effect (viability inhibition or cytotoxicity); extreme values may be limits of the assay; details: incubation time: 72 h
Kindly supply the reported drug sensitivity score values for the records listed here.

Value wanted: drug sensitivity score (CAL-120) of entry CN(C)C/C=C/C(=O)Nc1cc2c(Nc3ccc(F)c(Cl)c3)ncnc2cc1O[C@H]1CCOC1 [Afatinib]
0

Value wanted: drug sensitivity score (CAL-120) of entry CN1CC[C@H](c2c(O)cc(O)c3c(=O)cc(-c4ccccc4Cl)oc23)[C@H](O)C1 [Alvocidib]
14.1

Value wanted: drug sensitivity score (CAL-120) of entry COc1cccc2c1C(=O)c1c(O)c3c(c(O)c1C2=O)C[C@@](O)(C(=O)CO)C[C@@H]3O[C@H]1C[C@H](N)[C@H](O)[C@H](C)O1 [Doxorubicin]
1.5

Value wanted: drug sensitivity score (CAL-120) of entry C=CCNC1=C2C[C@@H](C)C[C@H](OC)[C@H](O)[C@@H](C)/C=C(\C)[C@H](OC(N)=O)[C@@H](OC)/C=C\C=C(/C)C(=O)NC(=CC1=O)C2=O [Tanespimycin]
10.5

Value wanted: drug sensitivity score (CAL-120) of entry CO[C@H]1C[C@@H]2CC[C@@H](C)[C@@](O)(O2)C(=O)C(=O)N2CCCC[C@H]2C(=O)O[C@H]([C@H](C)C[C@@H]2CC[C@@H](OC(=O)C(C)(CO)CO)[C@H](OC)C2)CC(=O)[C@H](C)/C=C(\C)[C@@H](O)[C@@H](OC)C(=O)[C@H](C)C[C@H](C)/C=C/C=C/C=C/1C [Temsirolimus]
7.34

---

Kindly supply the reported drug sensitivity score values for the records listed here.
system: HCC1143; test: drug sensitivity score (DSS), CellTox Green (DSS (AUC-based score)); higher = stronger drug effect (viability inhibition or cytotoxicity); extreme values may be limits of the assay; details: incubation time: 72 h
# output: bare number, no unit

Reported drug sensitivity score for C=CCNC1=C2C[C@@H](C)C[C@H](OC)[C@H](O)[C@@H](C)/C=C(\C)[C@H](OC(N)=O)[C@@H](OC)/C=C\C=C(/C)C(=O)NC(=CC1=O)C2=O : what is it?
2.55

Reported drug sensitivity score for Clc1ccc(C(c2ccccc2Cl)C(Cl)Cl)cc1 (stereo not given) : what is it?
2.11

Reported drug sensitivity score for CCN1CCN(c2ccc(Nc3cc(N(C)C(=O)Nc4c(Cl)c(OC)cc(OC)c4Cl)ncn3)cc2)CC1 : what is it?
0

Reported drug sensitivity score for COc1cccc2c1C(=O)c1c(O)c3c(c(O)c1C2=O)C[C@@](O)(C(=O)CO)C[C@@H]3O[C@H]1C[C@H](N)[C@H](O)[C@H](C)O1 : what is it?
0

Reported drug sensitivity score for O=C(c1ccc(C(=O)N2CCC(N3CCCC3)CC2)c(Nc2ccccc2)c1)N1CCC(N2CCCC2)CC1 : what is it?
0.868

---

Kindly supply the reported normalised response values for the records listed here.
test system: MFM-223; test: normalised response (% of control), CellTiter-Glo; higher = more viable cells (100 = DMSO, 0 = benzethonium chloride kill control); details: incubation time: 72 h
Reply with the number, then its unit.

Value wanted: normalised response (MFM-223) of entry CS(=O)(=O)c1ccc(C(=O)Nc2ccc(Cl)c(-c3ccccn3)c2)c(Cl)c1 [Vismodegib] (1000 nM)
95.2%

Value wanted: normalised response (MFM-223) of entry N#CC[C@H](C1CCCC1)n1cc(-c2ncnc3[nH]ccc23)cn1 [Ruxolitinib] (1000 nM)
91%

Value wanted: normalised response (MFM-223) of entry Clc1ccc(C(c2ccccc2Cl)C(Cl)Cl)cc1 (stereo not drawn) [Mitotane] (1000 nM)
97.4%

---

system: MDA-MB-436; experiment: normalised response (% of control), CellTiter-Glo; higher = more viable cells (100 = DMSO, 0 = benzethonium chloride kill control); conditions: incubation time: 72 h
readout.label: normalised response (%)
The figure you give is taken to be in %; do not add the unit.

Value wanted: normalised response (MDA-MB-436) of entry Nc1ccn([C@@H]2O[C@H](CO)[C@@H](O)[C@@H]2O)c(=O)n1 [Cytarabine] (100 nM)
95.1

Value wanted: normalised response (MDA-MB-436) of entry COc1cccc2cc(-c3nc([C@H]4CC[C@H](C(=O)O)CC4)n4ncnc(N)c34)[nH]c12 [OSI-027] (100 nM)
92

Value wanted: normalised response (MDA-MB-436) of entry CN(C)C/C=C/C(=O)Nc1cc2c(Nc3ccc(F)c(Cl)c3)ncnc2cc1O[C@H]1CCOC1 [Afatinib] (10 nM)
96

Value wanted: normalised response (MDA-MB-436) of entry COc1cc(Nc2ncc3c(n2)-c2ccc(Cl)cc2C(c2c(F)cccc2OC)=NC3)ccc1C(=O)O [Alisertib] (100 nM)
67.6

Value wanted: normalised response (MDA-MB-436) of entry S=c1[nH]cnc2nc[nH]c12 [Mercaptopurine] (100 nM)
96.1

---

Kindly supply the reported normalised response values for the records listed here.
test system: MDA-MB-468; experiment: normalised response (% of control), CellTox Green; higher = less cell death (100 = DMSO, 0 = benzethonium chloride kill control); details: incubation time: 72 h
The figure you give is taken to be in %; do not add the unit.

Value wanted: normalised response (MDA-MB-468) of entry COc1cc(Nc2ncc3c(n2)-c2ccc(Cl)cc2C(c2c(F)cccc2OC)=NC3)ccc1C(=O)O [Alisertib] (10000 nM)
-5.36

Value wanted: normalised response (MDA-MB-468) of entry Cc1ccc(F)c(NC(=O)Nc2ccc(-c3cccc4[nH]nc(N)c34)cc2)c1 [Linifanib] (100 nM)
66.5

Value wanted: normalised response (MDA-MB-468) of entry C=CC[C@@H]1/C=C(\C)C[C@H](C)C[C@H](OC)[C@H]2O[C@@](O)(C(=O)C(=O)N3CCCC[C@H]3C(=O)O[C@H](/C(C)=C/[C@@H]3CC[C@@H](O)[C@H](OC)C3)[C@H](C)[C@@H](O)CC1=O)[C@H](C)C[C@@H]2OC [Tacrolimus] (10000 nM)
52.5

Value wanted: normalised response (MDA-MB-468) of entry COc1cccc2c1C(=O)c1c(O)c3c(c(O)c1C2=O)C[C@@](O)(C(=O)CO)C[C@@H]3O[C@H]1C[C@H](N)[C@H](O)[C@H](C)O1 [Doxorubicin] (10 nM)
91.5

Value wanted: normalised response (MDA-MB-468) of entry OC[C@H]1O[C@@H](n2cnc3c2N=CNC[C@H]3O)C[C@@H]1O [Pentostatin] (10000 nM)
112

Value wanted: normalised response (MDA-MB-468) of entry CCN1CCN(c2ccc(Nc3cc(N(C)C(=O)Nc4c(Cl)c(OC)cc(OC)c4Cl)ncn3)cc2)CC1 [NVP-BGJ398] (10 nM)
154

Value wanted: normalised response (MDA-MB-468) of entry COc1cccc2c1C(=O)c1c(O)c3c(c(O)c1C2=O)C[C@@](O)(C(=O)CO)C[C@@H]3O[C@H]1C[C@H](N)[C@H](O)[C@H](C)O1 [Doxorubicin] (1000 nM)
363

Value wanted: normalised response (MDA-MB-468) of entry CN1CCC(COc2cnc(-c3cccc(Cn4nc(-c5cccc(C#N)c5)ccc4=O)c3)nc2)CC1 (100 nM)
157

Value wanted: normalised response (MDA-MB-468) of entry O=C(c1ccc(C(=O)N2CCC(N3CCCC3)CC2)c(Nc2ccccc2)c1)N1CCC(N2CCCC2)CC1 [UNC1215] (3000 nM)
80.5

Value wanted: normalised response (MDA-MB-468) of entry CO[C@H]1C[C@@H]2CC[C@@H](C)[C@@](O)(O2)C(=O)C(=O)N2CCCC[C@H]2C(=O)O[C@H]([C@H](C)C[C@@H]2CC[C@@H](OC(=O)C(C)(CO)CO)[C@H](OC)C2)CC(=O)[C@H](C)/C=C(\C)[C@@H](O)[C@@H](OC)C(=O)[C@H](C)C[C@H](C)/C=C/C=C/C=C/1C [Temsirolimus] (100 nM)
149

Value wanted: normalised response (MDA-MB-468) of entry Clc1ccc(C(c2ccccc2Cl)C(Cl)Cl)cc1 (configuration not stated) [Mitotane] (1000 nM)
140

Value wanted: normalised response (MDA-MB-468) of entry CC(=O)O[C@]1(C(C)=O)CC[C@H]2[C@@H]3C=C(C)C4=CC(=O)CC[C@]4(C)[C@H]3CC[C@@]21C [Megestrol acetate] (1000 nM)
141

---

Kindly supply the reported normalised viability values for the records listed here.
test system: MDA-MB-436; assay: normalised viability (% of control), CellTiter-Blue; higher = more viable cells (about 100 = DMSO control); conditions: 1000 nM; incubation time: 72 h
The figure you give is taken to be in %; do not add the unit.

Value wanted: normalised viability (MDA-MB-436) of entry OC[C@H]1O[C@@H](n2cnc3c2N=CNC[C@H]3O)C[C@@H]1O
88.4

Value wanted: normalised viability (MDA-MB-436) of entry Nc1nc(Cl)nc2c1ncn2[C@H]1C[C@H](O)[C@@H](CO)O1
65.8

Value wanted: normalised viability (MDA-MB-436) of entry COc1cccc2cc(-c3nc([C@H]4CC[C@H](C(=O)O)CC4)n4ncnc(N)c34)[nH]c12
56.4

Value wanted: normalised viability (MDA-MB-436) of entry Nc1ccn([C@@H]2O[C@H](CO)[C@@H](O)[C@@H]2O)c(=O)n1
74.3

Value wanted: normalised viability (MDA-MB-436) of entry COc1cccc2c1C(=O)c1c(O)c3c(c(O)c1C2=O)C[C@@](O)(C(=O)CO)C[C@@H]3O[C@H]1C[C@H](N)[C@H](O)[C@H](C)O1
18.2
